Values from patent US20140147444A1

- measurement_target: T1, human OPGbp [143-317] (human, UniProt O14788 143-317)
- T1 construct: also called OPGL
- T1 sequence (looked up): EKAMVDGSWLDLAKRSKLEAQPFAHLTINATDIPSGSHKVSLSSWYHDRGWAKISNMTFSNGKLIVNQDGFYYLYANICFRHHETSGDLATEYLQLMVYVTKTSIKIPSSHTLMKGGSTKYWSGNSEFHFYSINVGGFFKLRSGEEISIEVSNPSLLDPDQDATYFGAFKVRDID
- test: SPR (BIAcore), immobilized OPGbp [143-317]
Entries annotated with measured kon
I only need the number, in M⁻¹ s⁻¹, no unit after it.

Use these answered entries as a reference point.
“AT” antibody variant S96D (heavy chain CDR3) (antibody, name in Kabat numbering, V domains shown, not shown: human IgG1 CH1, hinge, CH2 and CH3) VH: QVQLVQSGAEVRKPGASVKVSCKASGYDFSNYAIHWVRQAPGQRLEWMGWINAGNGNTKFSQKFQGRITVTRDTAASTAYMELRSLRSEDTAVYYCARDDSNMVRGIIIAYYFDYWGQGTLVTVSS VL: EIVMTQSPSSLSASVGDRVTITCRASQSISRYLNWYQLKPGKAPRLLIYGASSLQSGVPSRFSGSGSGAEFTLTISSLQPEDIATYYCQHTRAFGQGTKVEIKR: 2.28e+06
“AT” antibody variant S96E (heavy chain CDR3) (antibody, name in Kabat numbering, V domains shown, not shown: human IgG1 CH1, hinge, CH2 and CH3) VH: QVQLVQSGAEVRKPGASVKVSCKASGYDFSNYAIHWVRQAPGQRLEWMGWINAGNGNTKFSQKFQGRITVTRDTAASTAYMELRSLRSEDTAVYYCARDESNMVRGIIIAYYFDYWGQGTLVTVSS VL: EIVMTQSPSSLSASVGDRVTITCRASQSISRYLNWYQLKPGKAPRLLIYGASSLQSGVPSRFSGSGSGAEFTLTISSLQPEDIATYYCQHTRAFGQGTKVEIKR: 2.54e+06
“AT” antibody variant S96H (heavy chain CDR3) (antibody, name in Kabat numbering, V domains shown, not shown: human IgG1 CH1, hinge, CH2 and CH3) VH: QVQLVQSGAEVRKPGASVKVSCKASGYDFSNYAIHWVRQAPGQRLEWMGWINAGNGNTKFSQKFQGRITVTRDTAASTAYMELRSLRSEDTAVYYCARDHSNMVRGIIIAYYFDYWGQGTLVTVSS VL: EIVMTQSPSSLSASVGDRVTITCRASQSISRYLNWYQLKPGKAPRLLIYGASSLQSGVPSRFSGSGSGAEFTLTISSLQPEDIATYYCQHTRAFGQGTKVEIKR: 4.12e+06

--- query ---
Task: Need kon, item “AT” antibody variant S96N (heavy chain CDR3) (antibody, name in Kabat numbering, V domains shown, not shown: human IgG1 CH1, hinge, CH2 and CH3) VH: QVQLVQSGAEVRKPGASVKVSCKASGYDFSNYAIHWVRQAPGQRLEWMGWINAGNGNTKFSQKFQGRITVTRDTAASTAYMELRSLRSEDTAVYYCARDNSNMVRGIIIAYYFDYWGQGTLVTVSS VL: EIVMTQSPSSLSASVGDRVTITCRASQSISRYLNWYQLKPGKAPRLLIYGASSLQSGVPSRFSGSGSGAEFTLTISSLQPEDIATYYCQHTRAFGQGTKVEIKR
Result: 1.4e+06
